Test: Apparent permeability of the compound at 50 uM after 5 hrs by PAMPA method
Format: physicochemical
Peptide text beside a SMILES is read from it.
measured.property: Papp at 5 h, 50 µM (×10⁻⁶ cm/s)

Illustrative cases are given below, each with its answer.
CC(C)C[C@@H]1NC(=O)[C@H](C(C)C)NC(=O)[C@H](Cc2c[nH]c3ccccc23)NC(=O)[C@H](Cc2ccccc2)NC(=O)[C@H](Cc2ccccc2)NC(=O)[C@@H]2CCCN2C1=O (cyclo(FFWVLP)); 0.37
CC(C)C[C@H]1C(=O)N2CCC[C@H]2C(=O)N[C@@H](Cc2ccc(O)cc2)C(=O)N(C)[C@H](C)C(=O)N(C)CC(=O)N[C@H](Cc2ccccc2)C(=O)N1C; 0.14
CC(C)C[C@H]1NC(=O)[C@@H](Cc2ccccc2)NC(=O)CNC(=O)[C@H](C)NC(=O)[C@H](Cc2ccc(O)cc2)NC(=O)[C@@H]2CCCN2C1=O; 0.01

P. CC(C)C[C@@H]1NC(=O)CNC(=O)[C@H](Cc2ccccc2)NC(=O)[C@H](CC(N)=O)NC(=O)[C@H](Cc2ccc(O)cc2)NC(=O)[C@H](C)NC1=O (cyclo(AYNFGL))
Q. CC(C)C[C@@H]1NC(=O)[C@H](Cc2ccc(O)cc2)N(C)C(=O)[C@H]2CCCN2C(=O)[C@H](CC(C)C)NC(=O)[C@H](CC(C)C)N(C)C(=O)[C@@H](CC(C)C)NC1=O
Exercise: // compare measured Papp at 5 h, 50 µM, left P , right Q , return larger Answer with the label corresponding to your selection.
Key: Q

FYI, the data here is from ChEMBL document CHEMBL3425496.
